method: Solubility of the compound in 0.1 M phosphate buffer at pH 7.4
Assay type: physicochemical
quantity measured: solubility (mg/mL)

chemical smiles | solubility, mg/mL
CC(=O)N[C@@H](CSC(=O)Nc1ccc(Br)cc1)C(=O)O | 24
CC(=O)N[C@@H](CSC(=O)Nc1ccc(F)cc1)C(=O)O | 26
CC(=O)N[C@@H](CSC(=O)Nc1ccc(Cl)cc1)C(=O)O | 26

###

Below: a set of entries, each annotated with reported pIC50.
System: UACC-62
method: Cytotoxicity against human UACC62 cells after 6 days by MTT assay
Assay type: functional, cell-based
test settings: UACC-62, 144 h
pIC50: −log10 of the molar value.

Below: 5 molecules and their reported pIC50.
chemical smiles | obs value
CC(=O)N[C@@H](CSC(=O)NCc1ccc(Cl)cc1)C(=O)O | < 3.70
CC(=O)N[C@@H](CSC(=O)Nc1ccc(F)cc1)C(=O)O | 7.44
CN(C)/N=N/c1[nH]cnc1C(N)=O | 4.93
CSc1ccccc1NC(=O)SC[C@H](NC(C)=O)C(=O)O | < 3.70
CC(=O)N[C@@H](CSC(=O)Nc1cc(Cl)cc(Cl)c1)C(=O)O | < 3.70

### Prompt Output pIC50 of CC(=O)N[C@@H](CSC(=O)Nc1ccc(C(F)(F)F)cc1[N+](=O)[O-])C(=O)O
### Response < 3.70

### Prompt Respond only with pIC50 recorded for CC(=O)N[C@@H](CSC(=O)Nc1ccccc1F)C(=O)O
### Response < 3.70

### Prompt Entry CC(=O)N[C@@H](CSC(=O)Nc1ccc(I)cc1)C(=O)O needs its pIC50 filled in; supply it.
### Response 4.34
